Ref: paper PMC7659582

We begin with a simple list: items and their reported CD incidence.
assay: Incidence of cardiac dysrhythmia in Truven Health MarketScan claims data; type: in vivo, human; settings: Table 2; cardiac dysrhythmia cases, MarketScan 2009-2014
reported_property: CD incidence

[[record]]
molecule = "Cc1nc2n(c(=O)c1CCN1CCC(c3noc4cc(F)ccc34)CC1)CCCC2O (centres unmarked) [PALIPERIDONE]"
result = 119

[[record]]
molecule = "CCCCc1oc2ccccc2c1C(=O)c1cc(I)c(OCCN(CC)CC)c(I)c1 [AMIODARONE]"
result = "21,788"

[[record]]
molecule = "Cc1nc2n(c(=O)c1CCN1CCC(c3noc4cc(F)ccc34)CC1)CCCC2 [RISPERIDONE]"
result = "4,066"

[[record]]
molecule = "CN(C)CC(c1ccc(O)cc1)C1(O)CCCCC1 (centres unmarked) [DESVENLAFAXINE]"
result = "2,222"

[[record]]
molecule = "CCOC(=O)N1CCC(=C2c3ccc(Cl)cc3CCc3cccnc32)CC1 [LORATADINE]"
result = "2,016"

[[record]]
molecule = "CCC(=O)C(CC(C)N(C)C)(c1ccccc1)c1ccccc1 (centres unmarked) [METHADONE]"
result = "1,662"

[[record]]
molecule = "CCCNCC(O)COc1ccccc1C(=O)CCc1ccccc1 (centres unmarked) [PROPAFENONE]"
result = "6,643"

[[record]]
molecule = "Cc1cccc(C)c1OCC(C)N (centres unmarked) [MEXILETINE]"
result = "1,250"

[[record]]
molecule = "C=C[C@H]1C[N@@]2CC[C@H]1C[C@@H]2[C@@H](O)c1ccnc2ccc(OC)cc12 [QUINIDINE]"
result = 421

[[record]]
molecule = "CC(C)NCC(O)c1ccc(NS(C)(=O)=O)cc1 (racemic) [DL-SOTALOL]"
result = "13,186"

[[record]]
molecule = "CN(CCOc1ccc(NS(C)(=O)=O)cc1)CCc1ccc(NS(C)(=O)=O)cc1 [DOFETILIDE]"
result = "2,749"


* * *

assay: FAERS disproportionality analysis; details: Table 2; values correspond to EB05 TdP of Table 1
As shown below, each of these compounds has a reported EB05 value.
reported_property: EB05

[[record]]
compound = "Cc1nc2n(c(=O)c1CCN1CCC(c3noc4cc(F)ccc34)CC1)CCCC2O (stereo not drawn)"
result = 0.57

[[record]]
compound = "CCC(=O)C(CC(C)N(C)C)(c1ccccc1)c1ccccc1 (stereo not drawn)"
result = 36.41

[[record]]
compound = "CCCNCC(O)COc1ccccc1C(=O)CCc1ccccc1 (stereo not drawn)"
result = 3.38

[[record]]
compound = "Cc1nc2n(c(=O)c1CCN1CCC(c3noc4cc(F)ccc34)CC1)CCCC2"
result = 1.26

[[record]]
compound = "CCOC(=O)N1CCC(=C2c3ccc(Cl)cc3CCc3cccnc32)CC1"
result = 4.87

[[record]]
compound = "Cc1cccc(C)c1OCC(C)N (stereo not drawn)"
result = 2.65


* * *

assay: FAERS disproportionality analysis; conditions: Table 2; values correspond to EB05 TdP of Table 1
Label met when EB05 is strictly below 20; otherwise label not met.

[[record]]
molecule = "CN(C)CC(c1ccc(O)cc1)C1(O)CCCCC1 (centres unmarked)"
label_value = "met"

[[record]]
molecule = "CN(CCOc1ccc(NS(C)(=O)=O)cc1)CCc1ccc(NS(C)(=O)=O)cc1 [DOFETILIDE]"
label_value = "not met"

[[record]]
molecule = "CCCCc1oc2ccccc2c1C(=O)c1cc(I)c(OCCN(CC)CC)c(I)c1"
label_value = "not met"

[[record]]
molecule = "C=C[C@H]1C[N@@]2CC[C@H]1C[C@@H]2[C@@H](O)c1ccnc2ccc(OC)cc12"
label_value = "not met"

[[record]]
molecule = "CC(C)NCC(O)c1ccc(NS(C)(=O)=O)cc1 (racemic)"
label_value = "not met"


* * *

Examples of compounds with documented EB05 VT follow.
test: FAERS disproportionality analysis; details: FAERS Nov 1997 to March 31, 2015; ventricular tachycardia; EB05 > 2 = signal
reported_property: EB05 VT

[[record]]
compound = "CCCCCCCN(CC)CCCC(O)c1ccc(NS(C)(=O)=O)cc1 (stereo not shown) [IBUTILIDE]"
reported_property = "EB05 VT"
result = 101.022

[[record]]
compound = "O=C(CCCN1CC=C(n2c(=O)[nH]c3ccccc32)CC1)c1ccc(F)cc1 [DROPERIDOL]"
reported_property = "EB05 VT"
result = 4.564

[[record]]
compound = "CN1CCN(CCCCN2C(=O)CN(/N=C/c3ccc(-c4ccc(Cl)cc4)o3)C2=O)CC1 [AZIMILIDE]"
reported_property = "EB05 VT"
result = 1.381

[[record]]
compound = "Cc1nccn1CC1CCc2c(c3ccccc3n2C)C1=O (stereo not shown) [ONDANSETRON]"
reported_property = "EB05 VT"
result = 6.395

[[record]]
compound = "O=c1[nH]c2ccccc2n1C1CCN(CCCC(c2ccc(F)cc2)c2ccc(F)cc2)CC1 [PIMOZIDE]"
reported_property = "EB05 VT"
result = 2.332

[[record]]
compound = "CCC(=O)C(CC(C)N(C)C)(c1ccccc1)c1ccccc1 (stereo not shown) [METHADONE]"
reported_property = "EB05 VT"
result = 3.998

[[record]]
compound = "CN1CCN(C2=Nc3cc(Cl)ccc3Nc3ccccc32)CC1 [CLOZAPINE]"
reported_property = "EB05 VT"
result = 0.291

[[record]]
compound = "CCOC(=O)N1CCC(=C2c3ccc(Cl)cc3CCc3cccnc32)CC1 [LORATADINE]"
reported_property = "EB05 VT"
result = 3.043

[[record]]
compound = "CC/C(=C(\\c1ccccc1)c1ccc(OCCN(C)C)cc1)c1ccccc1 [TAMOXIFEN]"
reported_property = "EB05 VT"
result = 0.172

[[record]]
compound = "COc1ccccc1OCC(O)CN1CCN(CC(=O)Nc2c(C)cccc2C)CC1 (stereo not shown) [RANOLAZINE]"
reported_property = "EB05 VT"
result = 4.375

[[record]]
compound = "O=c1[nH]c2ccccc2n1CCCN1CCC(n2c(=O)[nH]c3cc(Cl)ccc32)CC1 [DOMPERIDONE]"
reported_property = "EB05 VT"
result = 1.468

[[record]]
compound = "COc1ccc(CCN2CCC(Nc3nc4ccccc4n3Cc3ccc(F)cc3)CC2)cc1 [ASTEMIZOLE]"
reported_property = "EB05 VT"
result = 15.499

[[record]]
compound = "CC(C)(C)c1ccc(C(O)CCCN2CCC(C(O)(c3ccccc3)c3ccccc3)CC2)cc1 (stereo not shown) [TERFENADINE]"
reported_property = "EB05 VT"
result = 9.397

[[record]]
compound = "COc1ccc(CCN(C)CCCC(C#N)(c2ccc(OC)c(OC)c2)C(C)C)cc1OC (stereo not shown)"
reported_property = "EB05 VT"
result = 2.381

[[record]]
compound = "C=C[C@H]1C[N@@]2CC[C@H]1C[C@@H]2[C@@H](O)c1ccnc2ccc(OC)cc12 [QUINIDINE]"
reported_property = "EB05 VT"
result = 12.296

[[record]]
compound = "Cc1nc2n(c(=O)c1CCN1CCC(c3noc4cc(F)ccc34)CC1)CCCC2 [RISPERIDONE]"
reported_property = "EB05 VT"
result = 0.706

[[record]]
compound = "CC(C)NCC(O)c1ccc(NS(C)(=O)=O)cc1 (racemic) [DL-SOTALOL]"
reported_property = "EB05 VT"
result = 18.029

[[record]]
compound = "COCCc1ccc(OCC(O)CNC(C)C)cc1 (stereo not shown) [METOPROLOL]"
reported_property = "EB05 VT"
result = 3.318

[[record]]
compound = "CCOC(=O)C1=C(C)NC(C)=C(C(=O)OC)C1c1cccc([N+](=O)[O-])c1 (stereo not shown) [NITRENDIPINE]"
reported_property = "EB05 VT"
result = 0.228


* * *

# collection of hERG IC50/Free Cmax Ratio values tested on UniProt:Q12809
# Sequence (Q12809 whole entry): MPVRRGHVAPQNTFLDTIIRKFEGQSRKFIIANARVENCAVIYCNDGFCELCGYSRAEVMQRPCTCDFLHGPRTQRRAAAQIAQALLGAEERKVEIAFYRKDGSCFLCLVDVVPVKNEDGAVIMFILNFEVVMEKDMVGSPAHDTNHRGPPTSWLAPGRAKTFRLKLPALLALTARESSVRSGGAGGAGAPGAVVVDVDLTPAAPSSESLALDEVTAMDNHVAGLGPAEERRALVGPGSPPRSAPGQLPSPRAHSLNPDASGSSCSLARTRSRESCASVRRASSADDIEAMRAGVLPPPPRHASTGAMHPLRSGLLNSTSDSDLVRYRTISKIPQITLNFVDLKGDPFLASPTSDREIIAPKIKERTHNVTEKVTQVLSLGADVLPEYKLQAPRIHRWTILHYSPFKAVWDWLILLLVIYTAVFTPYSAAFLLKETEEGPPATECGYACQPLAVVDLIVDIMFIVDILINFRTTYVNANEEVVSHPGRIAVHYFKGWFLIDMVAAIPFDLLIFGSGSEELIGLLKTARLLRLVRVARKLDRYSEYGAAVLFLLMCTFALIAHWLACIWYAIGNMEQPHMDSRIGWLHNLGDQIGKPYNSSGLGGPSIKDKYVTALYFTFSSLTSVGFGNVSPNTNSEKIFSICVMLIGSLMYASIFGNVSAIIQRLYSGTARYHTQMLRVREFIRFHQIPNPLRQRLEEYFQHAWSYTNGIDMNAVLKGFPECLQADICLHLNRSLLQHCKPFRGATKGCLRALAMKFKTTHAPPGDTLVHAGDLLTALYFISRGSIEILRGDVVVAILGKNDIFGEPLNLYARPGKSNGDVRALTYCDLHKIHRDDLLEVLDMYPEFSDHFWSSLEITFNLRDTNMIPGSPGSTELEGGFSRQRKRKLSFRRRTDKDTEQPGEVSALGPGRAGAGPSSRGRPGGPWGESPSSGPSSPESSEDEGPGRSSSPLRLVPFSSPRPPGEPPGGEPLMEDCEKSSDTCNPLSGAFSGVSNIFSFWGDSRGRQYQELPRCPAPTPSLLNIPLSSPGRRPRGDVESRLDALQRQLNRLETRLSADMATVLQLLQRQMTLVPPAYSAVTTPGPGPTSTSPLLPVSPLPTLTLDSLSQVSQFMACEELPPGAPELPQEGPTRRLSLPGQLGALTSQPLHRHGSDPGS
reported_property: hERG IC50/Free Cmax Ratio

[[record]]
compound = "CC[C@H]1OC(=O)[C@H](C)[C@@H](O[C@H]2C[C@@](C)(OC)[C@@H](O)[C@H](C)O2)[C@H](C)[C@@H](O[C@@H]2O[C@H](C)C[C@H](N(C)C)[C@H]2O)[C@](C)(OC)C[C@@H](C)C(=O)[C@H](C)[C@@H](O)[C@]1(C)O"
measured_number = 77.41

[[record]]
compound = "CN1CCN(CCCCN2C(=O)CN(/N=C/c3ccc(-c4ccc(Cl)cc4)o3)C2=O)CC1 [AZIMILIDE]"
measured_number = 11.50

[[record]]
compound = "CCOC(=O)C1=C(C)NC(C)=C(C(=O)OC)C1c1cccc([N+](=O)[O-])c1 (stereo not shown)"
measured_number = 50345

[[record]]
compound = "Cc1cccc(C)c1OCC(C)N (stereo not shown)"
measured_number = 130.11

